Biological target: UniProtKB P08482
Sequence (P08482 whole entry): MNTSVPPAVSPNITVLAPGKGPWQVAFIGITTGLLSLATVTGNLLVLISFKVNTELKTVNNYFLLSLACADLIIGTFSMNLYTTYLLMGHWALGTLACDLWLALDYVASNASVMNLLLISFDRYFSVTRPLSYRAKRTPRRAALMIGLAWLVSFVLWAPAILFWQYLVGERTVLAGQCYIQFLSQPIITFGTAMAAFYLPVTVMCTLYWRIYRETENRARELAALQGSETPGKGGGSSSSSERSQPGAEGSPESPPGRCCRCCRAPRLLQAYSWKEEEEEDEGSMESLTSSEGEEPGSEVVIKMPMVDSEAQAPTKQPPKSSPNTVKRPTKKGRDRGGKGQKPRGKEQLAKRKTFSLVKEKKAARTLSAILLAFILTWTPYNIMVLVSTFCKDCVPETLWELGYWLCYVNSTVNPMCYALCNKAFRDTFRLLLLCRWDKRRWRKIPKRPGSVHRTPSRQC
Assay: Binding activity against rat muscarinic acetylcholine receptor M1 using [3H]QNB as the radioligand
pKi: −log10 of the molar value.
Given measured pKi, output 1 if it is greater than or equal to 8 and 0 if not.

Input: For this molecule, is measured pKi 8 or higher? CC(=O)O[C@@H]1C[C@@H]2C[C@H](C1)N([C@H](C)c1ccccc1)C2 (stereo in doubt; 12)
Output: 0

Input: For this molecule, is measured pKi 8 or higher? CC(=O)O[C@H]1CC2CC(C1)N(C)C2 (single isomer, unassigned; (+))
Output: 0

Input: For this molecule, is measured pKi 8 or higher? CC(=O)O[C@@H]1CC2CC(C1)N(C)C2 (stereo in doubt; 9)
Output: 0

Input: For this molecule, is measured pKi 8 or higher? CC(=O)O[C@@H]1CC2CC(C1)N(C)C2 (single isomer, unassigned; (+))
Output: 0

Input: For this molecule, is measured pKi 8 or higher? CN1CC2CC1C[C@H](OC(=O)C(C)(c1ccccc1)c1ccccc1)C2 (stereo partly drawn)
Output: 1

Input: For this molecule, is measured pKi 8 or higher? CN1CC2CC1C[C@@H](OC(=O)C(c1ccccc1)c1ccccc1)C2 (stereo partly drawn)
Output: 1

Input: For this molecule, is measured pKi 8 or higher? CN1CC2CC1C[C@H](OC(=O)C(c1ccccc1)c1ccccc1)C2 (stereo partly drawn)
Output: 1
